Reported B-score functional assay by item:
Target: human NTCP (Homo sapiens)
Sequence (Q14973 whole entry): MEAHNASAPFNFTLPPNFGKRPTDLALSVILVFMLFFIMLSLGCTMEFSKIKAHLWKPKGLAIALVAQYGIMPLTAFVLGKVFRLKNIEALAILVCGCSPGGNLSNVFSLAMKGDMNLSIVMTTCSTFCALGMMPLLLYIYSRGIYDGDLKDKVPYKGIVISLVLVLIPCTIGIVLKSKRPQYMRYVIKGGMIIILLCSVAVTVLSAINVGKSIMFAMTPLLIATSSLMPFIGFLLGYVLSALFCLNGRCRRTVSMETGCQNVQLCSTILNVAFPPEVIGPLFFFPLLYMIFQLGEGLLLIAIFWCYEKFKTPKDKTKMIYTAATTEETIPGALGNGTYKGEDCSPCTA
Test Method Notes: Screening taurocholate uptake assay (96-well, [14C]taurocholate, 10 µM drug)
Condition Parameters: screen, 10 µM drug, taurocholate uptake
Measured Quantity: B-score functional assay

| Compound | Measured Quantity | Observed |
| --- | --- | --- |
| COc1cc([S+](C)[O-])ccc1-c1nc2ncccc2[nH]1 (stereo not drawn) | B-score functional assay | 0.016 |
| C[C@H]1O[C@@H](O[C@H]2[C@@H](O)C[C@H](O[C@H]3[C@@H](O)C[C@H](O[C@H]4CC[C@@]5(C)[C@H](CC[C@@H]6[C@@H]5C[C@@H](O)[C@]5(C)[C@@H](C7=CC(=O)OC7)CC[C@]65O)C4)O[C@@H]3C)O[C@@H]2C)C[C@H](O)[C@@H]1O | B-score functional assay | -1.822 |
| Cl.O=c1[nH]oc2c1CCNC2 [THIP Hydrochloride] | B-score functional assay | 0.28 |

Taken from paper PMC5681660.
